biological target: NaV1.2 (Rattus norvegicus), P04775; conditions: modification not given
Sequence (P04775 whole entry): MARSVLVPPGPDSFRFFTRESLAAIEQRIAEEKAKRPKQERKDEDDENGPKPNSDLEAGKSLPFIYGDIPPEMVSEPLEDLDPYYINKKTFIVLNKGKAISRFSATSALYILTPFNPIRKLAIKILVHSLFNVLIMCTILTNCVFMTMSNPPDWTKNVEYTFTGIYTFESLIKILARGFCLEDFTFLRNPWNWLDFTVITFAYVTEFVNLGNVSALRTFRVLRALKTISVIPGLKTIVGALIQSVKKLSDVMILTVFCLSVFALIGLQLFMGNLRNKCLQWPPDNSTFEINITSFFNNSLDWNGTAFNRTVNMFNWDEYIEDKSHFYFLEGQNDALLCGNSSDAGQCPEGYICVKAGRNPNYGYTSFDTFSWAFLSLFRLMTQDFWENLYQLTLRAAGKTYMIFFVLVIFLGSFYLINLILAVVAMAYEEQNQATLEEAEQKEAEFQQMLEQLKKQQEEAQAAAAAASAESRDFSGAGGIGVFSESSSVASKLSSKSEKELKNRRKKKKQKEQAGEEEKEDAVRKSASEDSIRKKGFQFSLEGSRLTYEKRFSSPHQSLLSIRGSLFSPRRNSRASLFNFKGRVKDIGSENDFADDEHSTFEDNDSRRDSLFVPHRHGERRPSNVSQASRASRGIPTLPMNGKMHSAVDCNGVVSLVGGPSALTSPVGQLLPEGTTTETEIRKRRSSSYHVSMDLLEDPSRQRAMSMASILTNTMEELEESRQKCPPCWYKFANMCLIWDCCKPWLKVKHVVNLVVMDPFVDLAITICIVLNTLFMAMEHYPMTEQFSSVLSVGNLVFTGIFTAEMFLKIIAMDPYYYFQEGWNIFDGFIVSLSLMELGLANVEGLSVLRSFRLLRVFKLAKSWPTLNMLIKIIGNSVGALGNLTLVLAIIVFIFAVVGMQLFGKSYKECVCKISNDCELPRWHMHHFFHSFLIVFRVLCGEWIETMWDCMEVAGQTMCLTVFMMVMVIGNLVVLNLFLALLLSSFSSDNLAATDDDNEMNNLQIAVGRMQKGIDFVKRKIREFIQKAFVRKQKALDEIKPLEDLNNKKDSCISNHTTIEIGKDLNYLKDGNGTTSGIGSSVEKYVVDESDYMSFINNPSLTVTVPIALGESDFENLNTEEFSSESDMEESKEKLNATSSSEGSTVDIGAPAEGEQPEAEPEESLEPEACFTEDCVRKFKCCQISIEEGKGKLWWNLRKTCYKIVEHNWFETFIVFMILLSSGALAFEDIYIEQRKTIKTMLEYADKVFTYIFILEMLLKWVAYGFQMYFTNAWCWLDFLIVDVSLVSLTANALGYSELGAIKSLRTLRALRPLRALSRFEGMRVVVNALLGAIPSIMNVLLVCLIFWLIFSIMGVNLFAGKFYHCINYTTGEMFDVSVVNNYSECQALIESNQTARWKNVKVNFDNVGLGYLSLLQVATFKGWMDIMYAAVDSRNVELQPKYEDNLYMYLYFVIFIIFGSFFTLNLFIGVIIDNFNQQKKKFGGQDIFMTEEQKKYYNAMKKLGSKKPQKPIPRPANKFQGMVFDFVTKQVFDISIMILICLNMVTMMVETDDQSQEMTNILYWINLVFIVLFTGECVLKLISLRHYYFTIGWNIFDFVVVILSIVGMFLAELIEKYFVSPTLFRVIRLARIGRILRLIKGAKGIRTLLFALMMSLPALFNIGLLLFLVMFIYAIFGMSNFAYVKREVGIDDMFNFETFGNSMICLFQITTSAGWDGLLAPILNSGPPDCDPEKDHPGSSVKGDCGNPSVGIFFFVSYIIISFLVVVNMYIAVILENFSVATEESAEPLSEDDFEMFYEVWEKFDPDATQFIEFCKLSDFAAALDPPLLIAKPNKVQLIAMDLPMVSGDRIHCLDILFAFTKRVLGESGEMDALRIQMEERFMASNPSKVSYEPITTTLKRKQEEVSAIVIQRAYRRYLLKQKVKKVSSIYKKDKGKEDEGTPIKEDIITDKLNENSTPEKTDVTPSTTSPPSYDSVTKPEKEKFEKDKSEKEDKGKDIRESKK
Metric: Kd (nM)
Report only the number, with the unit nM understood.

QUERY: State the recorded Kd for this entry: CCNCSSKWCRDHSRCC [μ-conotoxin KIIIA-P2, P0C195]
RESULT: 230
